The reported measurements were obtained from patent US20240343814A1.

Target: Recombinant human his-tagged IGF 1R extracellular domain protein (human) (UniProt P08069)
Test: SPR, captured IgG, IGF-1R ECD-his analyte, dissociation pH 6
Listed binders paired with reported koff

[
  {
    "Binder": "VRDN-02524 (antibody, V domains shown) VH: EVQLVQSGGGLVKPGGSLRLSCAASGFTFSSFAMHWVRQAPGKGLEWISVIDTRGATYYADSVKGRFTISRDNAKNSLYLQMNSLRAEDTAVYYCARLGNFYYHMDVWGQGTTVTVSS VL: EIVLTQSPGTLSVSPGERATLSCRASQSIGSSLHWYQQKPGQAPRLLIKYASQSLSGIPDRFSGSGSGTDFTLTISRLEPEDFAVYYCHQSSRLPHTFGQGTKVEIK",
    "koff (s⁻¹)": "4.66e-05"
  },
  {
    "Binder": "VRDN-02530 (antibody, V domains shown) VH: EVQLVQSGGGLVKPGGSLRLSCAASGFTFSSFAMHWVRQAPGKGLEWISVIDTRGATYYADSVKGRFTISRDNAKNSLYLQMNSLRAEDTAVYYCARLGNFYYGMDVWGQGTTVTVSS VL: EIVLTQSPGTLSVSPGERATLSCRAHQSIGSSLHWYQQKPGQAPRLLIKYASQSLSGIPDRFSGSGSGTDFTLTISRLEPEDFAVYYCHQSSRLPHTFGQGTKVEIK",
    "koff (s⁻¹)": "1e-06"
  },
  {
    "Binder": "VRDN-02563 (antibody, V domains shown) VH: EVQLVQSGGGLVKPGGSLRLSCAASGFTFSSFAMHWVRQAPGKGLEWISVIHTRGATYYADSVKGRFTISRDNAKNSLYLQMNSLRAEDTAVYYCARLGNFYYHMDVWGQGTTVTVSS VL: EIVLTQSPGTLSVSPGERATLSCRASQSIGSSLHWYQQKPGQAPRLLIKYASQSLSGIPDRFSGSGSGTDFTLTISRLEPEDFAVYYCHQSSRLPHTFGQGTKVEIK",
    "koff (s⁻¹)": 0.000353
  }
]
